Where do these numbers come from? They come from paper PMC9557730.

B1: N-terminal 3×-FLAG-tagged p52 (WT) [human] / XPB [human (endogenous in HEK293T)] (parent complex)
chain 1: MESTPSRGLNRVHLQCRNLQEFLGGLSPGVLDRLYGHPATCLAVFRELPSLAKNWVMRMLFLEQPLPQAAVALWVKKEFSKAQEESTGLLSGLRIWHTQLLPGGLQGLILNPIFRQNLRIALLGGGKAWSDDTSQLGPDKHARDVPSLDKYAEERWEVVLHFMVGSPSAAVSQDLAQLLSQAGLMKSTEPGEPPCITSAGFQFLLLDTPAQLWYFMLQYLQTAQSRGMDLVEILSFLFQLSFSTLGKDYSVEGMSDSLLNFLQHLREFGLVFQRKRKSRRYYPTRLAINLSSGVSGAGGTVHQPGFIVVETNYRLYAYTESELQIALIALFSEMLYRFPNMVVAQVTRESVQQAIASGITAQQIIHFLRTRAHPVMLKQTPVLPPTITDQIRLWELERDRLRFTEGVLYNQFLSQVDFELLLAHARELGVLVFENSAKRLMVVTPAGHSDVKRFWKRQKHSS
chain 2: MGKRDRADRDKKKSRKRHYEDEEDDEEDAPGNDPQEAVPSAAGKQVDESGTKVDEYGAKDYRLQMPLKDDHTSRPLWVAPDGHIFLEAFSPVYKYAQDFLVAIAEPVCRPTHVHEYKLTAYSLYAAVSVGLQTSDITEYLRKLSKTGVPDGIMQFIKLCTVSYGKVKLVLKHNRYFVESCHPDVIQHLLQDPVIRECRLRNSEGEATELITETFTSKSAISKTAESSGGPSTSRVTDPQGKSDIPMDLFDFYEQMDKDEEEEEETQTVSFEVKQEMIEELQKRCIHLEYPLLAEYDFRNDSVNPDINIDLKPTAVLRPYQEKSLRKMFGNGRARSGVIVLPCGAGKSLVGVTAACTVRKRCLVLGNSAVSVEQWKAQFKMWSTIDDSQICRFTSDAKDKPIGCSVAISTYSMLGHTTKRSWEAERVMEWLKTQEWGLMILDEVHTIPAKMFRRVLTIVQAHCKLGLTATLVREDDKIVDLNFLIGPKLYEANWMELQNNGYIAKVQCAEVWCPMSPEFYREYVAIKTKKRILLYTMNPNKFRACQFLIKFHERRNDKIIVFADNVFALKEYAIRLNKPYIYGPTSQGERMQILQNFKHNPKINTIFISKVGDTSFDLPEANVLIQISSHGGSRRQEAQRLGRVLRAKKGMVAEEYNAFFYSLVSQDTQEMAYSTKRQRFLVDQGYSFKVITKLAGMEEEDLAFSTKEEQQQLLQKVLAATDLDAEEEVVAGEFGSRSSQASRRFGTMSSMSGADDTVYMEYHSSRSKAPSKHVHPLFKRFRK

- Variants of: B1
- assayRemarks: FLAG-IP–Western; HEK293T nuclear extracts; n = 3, biological replicates; read off a plot
Below is a list of entries, each paired with its recorded response value.

Recorded response, per entry:
Qu. State its response: chain 1 R337A, chain 1 F338A
Ans. ~0.03 Normalized Western Signal

Qu. // fetch response given entry chain 1 Y316A, chain 1 Y318A
Ans. ~0.02 Normalized Western Signal

***
Qu. Please supply the value of reported response for the item chain 1 E310A, chain 1 R314A
Ans. ~0.13 Normalized Western Signal

Qu. Give the reported response for this variant. chain 1 E310F
Ans. ~0.01 Normalized Western Signal
